The entries below are paired with their reported TGI.
- Tested on: A549 NSCLC
- measurement_protocol: NCI tumour cell line growth inhibition, 48 h

molecule	TGI
COc1ccc(C(=O)NCCC2CN(S(=O)(=O)C(F)(F)F)c3ccccc32)c(OC)c1 (stereo not given)	> 100 µM
C=CCN1CCN([C@H](c2ccc(C(=O)N(CC)CC)cc2)c2cccc(OC)c2)CC1	> 25 µM
C=CCOC(C)n1c(C)cc(=O)n(C(C)OCC=C)c1=O (stereo not given)	> 100 µM
COc1ccc2c(CCNC(C)=O)c(C(C)=O)[nH]c2c1	> 100 µM
C#CCn1cnc2cnc(Nc3cccc(NC(=O)CCl)c3)nc21	> 62.5 µM
